# study system: human catalytic domain ROCK II protein (amino acids 5-554) with a N-terminal GST tag (Homo sapiens)
# Sequence (O75116 5-554): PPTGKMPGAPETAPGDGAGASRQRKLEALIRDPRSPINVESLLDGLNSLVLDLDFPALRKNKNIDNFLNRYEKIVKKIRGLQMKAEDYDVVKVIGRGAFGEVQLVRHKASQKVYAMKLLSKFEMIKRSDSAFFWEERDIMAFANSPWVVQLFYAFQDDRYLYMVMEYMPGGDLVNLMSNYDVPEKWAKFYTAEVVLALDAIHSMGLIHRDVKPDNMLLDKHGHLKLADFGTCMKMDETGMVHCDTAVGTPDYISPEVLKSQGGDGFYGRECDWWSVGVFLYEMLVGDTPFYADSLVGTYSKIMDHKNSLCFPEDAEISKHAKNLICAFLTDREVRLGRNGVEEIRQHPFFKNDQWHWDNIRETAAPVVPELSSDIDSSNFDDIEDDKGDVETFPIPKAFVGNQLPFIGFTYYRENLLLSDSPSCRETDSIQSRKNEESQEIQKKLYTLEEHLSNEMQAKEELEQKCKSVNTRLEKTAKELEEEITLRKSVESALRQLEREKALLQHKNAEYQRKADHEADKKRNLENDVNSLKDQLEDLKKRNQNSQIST
# assay notes: biochemical
pIC50: −log10 of the molar value.
Known pIC50 of a selection of molecules

molecule	pIC50
COc1ccc(Cl)c([C@@H](C)NC(=O)N2CCN(c3ccncc3F)CC2)c1 [Example 24]	7.43
C[C@@H]1CN(c2ccnc(F)c2)CCN1C(=O)NCc1cccc2nn(C)cc12 [Example 11]	7.49
COc1cccc([C@@H](C)NC(=O)N2CCN(c3ccncc3F)CC2)c1F [Example 18]	6.70
C[C@@H]1CN(c2ccnc(F)c2)CCN1C(=O)N[C@H](C)c1cccc2c1OCO2 [Example 12]	7.94

* * *

Known pIC50 of a selection of molecules
# Test system: cellular ROCK activity (cofilin phosphorylation at Ser3) in A7r5 rat smooth muscle cells
# assay notes: Cellular ROCK activity: cofilin (Ser3) phosphorylation, In-Cell Western assay
# Type: cell-based
# conditions used: Rattus norvegicus, A7R5, 1 h, 1 hour compound incubation, phospho-cofilin (Ser3), read-out: CELL_IC50
pIC50: −log10 of the molar value.

molecule	pIC50
C[C@@H](NC(=O)N1CCN(c2ccncc2F)CC1)c1cccc(OC(F)F)c1	6.37
C[C@@H]1CN(c2ccnc(F)c2)CCN1C(=O)N[C@H](C)c1ccccc1Cl	5.96
C[C@@H]1CN(c2ccncc2F)CCN1C(=O)NCc1cccc2c1cnn2C	5.70
C[C@@H]1CN(c2ccncc2F)C[C@@H](C)N1C(=O)N[C@H](C)c1cccc2c1CCO2	7.46
Cc1cnc2cccc([C@@H](C)NC(=O)N3CCN(c4ccncc4F)C[C@H]3C)n12	7.88
COc1cccc([C@@H](C)NC(=O)N2CCN(c3ccncc3F)CC2)c1F	5.59
Cc1cc2c([C@@H](C)NC(=O)N3CCN(c4ccnc(F)c4)C[C@H]3C)cccc2o1	6.45
C[C@@H]1CN(c2ccnc(F)c2)CCN1C(=O)N[C@H](C)c1cccc(OC(F)F)c1	6.19

* * *

# System: cellular ROCK activity (cofilin phosphorylation at Ser3) in A7r5 rat smooth muscle cells
# assay notes: Cellular ROCK activity: cofilin (Ser3) phosphorylation, In-Cell Western assay
# Format: cell-based
# conditions used: Rattus norvegicus, A7R5, 1 h, 1 hour compound incubation, phospho-cofilin (Ser3), read-out: CELL_IC50

molecule	value operator	IC50 (nM)
COc1cccc([C@@H](C)NC(=O)N2CCN(c3ccncc3F)C[C@@H]2C)c1 [Example 133]	=	2440
C[C@@H]1CN(c2ccnc(F)c2)CCN1C(=O)NCc1ccccc1Cl [Example 106]	=	1620
[2H]C([2H])([2H])Oc1cccc([C@H](NC(=O)N2CCN(c3ccnc(F)c3)C[C@H]2C)C([2H])([2H])[2H])c1 [Example 116]	=	127
C[C@@H]1CN(c2ccncc2F)CCN1C(=O)N[C@H](C)c1cccc2c1OC(F)(F)O2 [Example 67]	=	243
C[C@@H]1CN(c2ccncc2F)CCN1C(=O)NCc1cccc(OC(F)F)c1 [Example 139]	=	486
COc1cccc([C@@H](C)OC(=O)N2CCN(c3ccncc3F)CC2)c1 [Example 17]	=	1090
C[C@H](NC(=O)N1CCN(c2ccncc2F)C[C@H]1C)c1cccn2nccc12 [Example 62]	=	490
COc1cccc([C@@H](C)NC(=O)N2CCN(c3ccncc3F)CC2)c1Cl [Example 20]	≥	5000
COc1cccc([C@@H](C)NC(=O)N2CCN(c3ccncc3F)[C@H](C)C2)c1 [Example 91]	=	783
C[C@@H]1CN(c2ccncc2F)CCN1C(=O)N[C@H](C)c1ccccc1Cl [Example 42]	=	73
Cc1cnc2cccc([C@@H](C)NC(=O)N3CCN(c4ccncc4F)CC3)n12 [Example 34]	=	104
COc1cccc([C@@H](C)NC(=O)N2[C@H](C)CN(c3ccnc(F)c3)C[C@H]2C)c1 [Example 15]	=	1390
C[C@@H]1CN(c2ccnc(F)c2)CCN1C(=O)NCc1cccc2nn(C)cc12 [Example 11]	=	411
COc1cccc(CN2CC[C@H]3CN(c4ccncc4F)CCN3C2=O)c1 [Example 88]	=	3800
C[C@@H]1CN(c2ccncc2F)CCN1C(=O)N[C@H](C)c1cccnc1 [Example 52]	=	234
C[C@@H]1CN(c2ccncc2F)CCN1C(=O)NCc1cccc2occc12 [Example 76]	=	86.1
COc1cccc([C@@H](C)NC(=O)N2CCN(c3ccncc3F)CC2)c1 [Example 16]	=	122

* * *

Known pIC50 of a selection of compounds
# Tested on: cellular ROCK activity (cofilin phosphorylation at Ser3) in A7r5 rat smooth muscle cells
# assay notes: Cellular ROCK activity: cofilin (Ser3) phosphorylation, In-Cell Western assay
# Assay type: cell-based
# conditions used: Rattus norvegicus, A7R5, 1 h, 1 hour compound incubation, phospho-cofilin (Ser3), read-out: CELL_IC50
pIC50: −log10 of the molar value.
property label: pIC50

molecule	numeric readout
C[C@@H](NC(=O)N1CCN(c2ccnc(F)c2)CC1)c1cccc2c1CCO2	6.70
C[C@@H]1CN(c2ccncc2F)CCN1C(=O)N[C@H](C)c1cccc2nccn12	7.75
C[C@H]1CN(C(=O)NCc2cccc(OC(F)F)c2)CCN1c1ccncc1F	5.56
O=C(NCc1ccccc1Cl)N1CCN(c2ccncc2F)CC1	5.78
COc1cc(F)cc([C@@H](C)NC(=O)N2CCN(c3ccncc3F)C[C@H]2C)c1	7.82

* * *

# Tested on: cellular ROCK activity (cofilin phosphorylation at Ser3) in A7r5 rat smooth muscle cells
# assay notes: Cellular ROCK activity: cofilin (Ser3) phosphorylation, In-Cell Western assay
# Format: cell-based
# conditions used: Rattus norvegicus, A7R5, 1 h, 1 hour compound incubation, phospho-cofilin (Ser3), read-out: CELL_IC50
Known IC50 of a selection of compounds
property label: IC50 (nM)

compound	numeric readout
COc1cccc([C@@H](C)NC(=O)N2CCN(c3ccncc3F)C[C@H]2C)c1	7.5
C[C@@H]1CN(c2ccncc2F)CCN1C(=O)N[C@H](C)c1cccc(OC(F)F)c1	53.1
COc1cccc([C@@H](C)NC(=O)N2CCN(c3ccnc(F)c3)C[C@H]2C)c1	122
COc1cccc([C@@H](C)NC(=O)N2CCN(c3ccncc3F)CC2CO)c1 (some centres unmarked)	79.8
COc1cc([C@@H](C)NC(=O)N2CCN(c3ccncc3F)C[C@H]2C)ccc1F	33.3
COc1cccc([C@@H](C)NC(=O)N2CCN(c3ccncc3F)[C@@H]3C[C@@H]32)c1	703
[2H]C([2H])([2H])Oc1cccc([C@@H](C)NC(=O)N2CCN(c3ccnc(F)c3)C[C@H]2C)c1	138
C[C@@H](NC(=O)N1CCN(c2ccncc2F)CC1)c1cccc2c1OCO2	87.7

* * *

# Test system: cellular ROCK activity (cofilin phosphorylation at Ser3) in A7r5 rat smooth muscle cells
# assay notes: Cellular ROCK activity: cofilin (Ser3) phosphorylation, In-Cell Western assay
# Type: cell-based
# conditions used: Rattus norvegicus, A7R5, 1 h, 1 hour compound incubation, phospho-cofilin (Ser3), read-out: CELL_IC50
pIC50: −log10 of the molar value. Counter-ions that a name gives are not always drawn.

compound	pIC50
C[C@@H](NC(=O)N1CCN(c2ccnc(F)c2)[C@@H](C)C1)c1cccc2c1CCO2 [Example 118]	6.15
COc1cc(F)cc([C@@H](C)NC(=O)N2CCN(c3ccncc3F)CC2)c1 [Example 128]	6.79
[2H]C([2H])([2H])Oc1cccc([C@@H](C)NC(=O)N2CCN(c3ccncc3F)C[C@H]2C)c1 [Example 82]	8.04
C[C@@H]1CN(c2ccncc2F)CCN1C(=O)N[C@H](C)c1ccccc1Br [Example 45]	6.90
CC(NC(=O)N1CCN(c2ccncc2F)CC1)c1c(F)cccc1Cl (centres unmarked) [Example 26]	5.93
C[C@@H](NC(=O)N1CCN(c2ccncc2F)CC1)c1cccc2c1OC(F)(F)O2 [Example 36]	5.84
Cc1nc2c([C@@H](C)NC(=O)N3CCN(c4ccncc4F)C[C@H]3C)cccc2o1 [Example 69]	6.99
COc1ccc(Cl)c([C@@H](C)NC(=O)N2CCN(c3ccncc3F)CC2)c1 [Example 24]	6.04
C[C@@H](NC(=O)N1CCN(c2ccncc2F)CC1)c1cccc2c1CC(C)(C)O2 [Example 30]	6.52
C[C@@H]1CN(c2ccncc2F)CCN1C(=O)NCc1cccc2c1OCCO2 [Example 77, formate]	6.72
O=C(NCc1cccc(OC(F)F)c1)N1CCN(c2ccncc2F)CC1 [Example 129]	5.45
C[C@@H](NC(=O)N1CCN(c2ccncc2F)CC1)c1ccccc1Cl [Example 124]	5.93
C[C@@H]1CN(c2ccncc2F)CCN1C(=O)N[C@H](C)c1cccc(F)c1Cl [Example 47]	6.88
C[C@@H]1CN(c2ccnc(F)c2)CCN1C(=O)N[C@H](C)c1cccc2c1OCO2 [Example 12]	6.70
C[C@@H](NC(=O)N1CCN(c2ccnc(F)c2)[C@@H](C)C1)c1cccc2occc12 [Example 119]	6.39
COc1cccc(CNC(=O)N2CCN(c3ccncc3F)[C@@H](C)C2)c1 [Example 150]	6.15
C[C@@H](NC(=O)N1CCN(c2ccncc2F)[C@@H](C)C1)c1cccc2c1CCO2 [Example 147]	7.64
